Measured values drawn from ChEMBL document CHEMBL1961873 for this set.

Biological target: Protein kinase C alpha type (Homo sapiens);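 note: each value is the mean percent inhibition of PKC-alpha kinase activity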
Details: at 0.1 µM
quantity: inhibition (%)
Write it as a number; the unit % goes unstated.

Please review the following examples before continuing.
# smiles, units, inhibition
records = [
    ("FC(F)(F)c1cccc(-c2nn3ncccc3c2-c2ccnc(Nc3ccc4c(c3)OCCO4)n2)c1", "%", 0.53),
    ("COc1ccc(-c2oc3ncnc(N)c3c2-c2ccc(NC(=O)Nc3cc(C(F)(F)F)ccc3F)cc2)cc1", "%", 0.71),
    ("CN1CCC(n2cnc(-c3ccc(F)cc3)c2-c2ccnc(Nc3ccccc3)n2)CC1", "%", 19.4),
    ("c1cc(-c2cnn3nc(N4CCOCC4)ccc23)nc(NC2CC2)n1", "%", 1.17),
    ("CCN(CC)S(=O)(=O)c1ccc(OC)c(Nc2ncc(-c3ccccc3)o2)c1", "%", 0.46),
]

Bench note, Protein kinase C alpha type (Homo sapiens): `COC(=O)Nc1nc2ccc(S(=O)(=O)c3ccc(NC(=O)Nc4cc(C(F)(F)F)ccc4F)cc3)cc2[nH]1` , inhibition reads 0.42

Considering `Fc1cccc(COc2ccc(Nc3ncnc4sc(-c5ccco5)cc34)cc2Cl)c1` , its inhibition with Protein kinase C alpha type (Homo sapiens) was recorded as 1.33

// compound `Nc1nc(-c2cccc(Cl)c2)c(-c2ccc3ncccc3n2)s1` , assay Protein kinase C alpha type (Homo sapiens), inhibition value: 1.05

Item: `N#Cc1c(NC(=O)CN2CCOCC2)sc2c1CCCC2` | System: Protein kinase C alpha type (Homo sapiens) | inhibition: 2.23

inhibition for Protein kinase C alpha type (Homo sapiens) with input `CC(C)(CO)CNC(=O)c1ccc2c(c1)/C(=N/Nc1ccc(S(N)(=O)=O)cc1)C(=O)N2` equals -0.39
